System: HS 578T breast
assayProtocol: NCI tumour cell line growth inhibition, 48 h
metric: TGI

INSERT INTO assay_data (compound, observed) VALUES
  ('O=C(Nc1nnc(-c2ccccc2)o1)C(SC(=S)N1CCCC1)c1ccccc1 (stereo not drawn)', '> 100 µM'),
  ('O=C(CCCCCCCCC(=O)N1C(=O)CC(=O)N(c2ccc(Cl)cc2)C1=S)N1C(=O)CC(=O)N(c2ccc(Cl)cc2)C1=S', '> 100 µM'),
  ('O=c1ccc(=O)c2c1c1[nH]c3ccccc3c1c1c(=O)c3ccccc3c(=O)c21', '> 10 µM');

---

Test system: 786-0 renal
assayProtocol: NCI tumour cell line growth inhibition, 48 h
This listing pairs compounds with measured TGI.
metric: TGI

INSERT INTO assay_data (compound, observed) VALUES
  ('CN(CC(=O)O)c1ncc2c(n1)-c1ccccc1CC2', '> 100 µM'),
  ('COc1ccc(Nc2nc(N)c(C(=O)c3ccco3)s2)cc1', '> 80.1 µM'),
  ('COc1ccc(/C(C#N)=C2/O/C(=N/N)C(c3ccc(OC)c(OC)c3)C2=O)cc1OC (stereo unspecified)', '> 100 µM'),
  ('CC(=O)CCN1CC2CN=NC2(C#N)C1 (stereo unspecified)', '> 100 µM'),
  ('Cc1cccc(NC(=O)CSc2nnc(-c3ccc(N=Cc4ccc(Cl)cc4)cc3)o2)c1', '> 100 µM'),
  ('COc1ccc(N=C2C(=O)Nc3ccc(Br)cc32)cc1', '43.6 µM'),
  ('COc1cc(-c2cc(OC)c(OC)c3ccc(Br)cc23)c2cc(Br)ccc2c1OC', '34.2 µM'),
  ('CC(C)(C)C(=O)C(N)C(=O)C(C)(C)C', '> 100 µM'),
  ('O=C(O)c1cc2ccc(Cl)cc2c(O)c1C1=CCCCC1', '> 100 µM'),
  ('CC1CC[C@@]2(OC1)OC1C[C@H]3[C@@H]4CC=C5C[C@@H](OC6OC(CO)C(OC7OC(CO)C(O)C(O)C7O)C(O)C6OC6OC(C)C(O)C(O)C6O)CC[C@]5(C)[C@H]4CC[C@]3(C)C1[C@@H]2C (stereo partly specified)', '0.88 µM'),
  ('C=C(CCC(=O)N(CCc1c[nH]c2ccccc12)C(=O)c1ccccc1CSCC)C(=O)OC', '> 100 µM'),
  ('CCOC(=O)CSc1nc(-c2ccc(Cl)cc2)c(C#N)c(=O)[nH]1', '> 100 µM'),
  ('COc1cc(/C=C2\C(=O)N(c3ccc(Cl)cc3)C(c3ccccc3)S2(=O)=O)cc(OC)c1OC (stereo unspecified)', '> 100 µM'),
  ('COc1cc(/C=C/C(=O)/C=C/c2ccc(-n3ccnc3)cc2)ccc1O', '4.85 µM'),
  ('Cc1cc2nc3c(C(OC4OC(CO)C(O)C(O)C4O)C(O)CO)nn(-c4ccc(F)cc4)c3nc2cc1C (stereo unspecified)', '> 100 µM'),
  ('NC(=O)C1C(=O)Oc2cccnc21 (stereo unspecified)', '> 100 µM');
